Recorded values, source patent US20230250190A1.

# TARGET ENTITY: T1, T9 (Tn-MUC1) (PAPGSTAPPAHGVT(α-GalNAc)S(α-GalNAc)APDTRPAPG-OH)
# T1 peptide: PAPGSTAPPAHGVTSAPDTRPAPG
# ASSAY: glycopeptide array
Below, each of the binders is paired with its reported EC50 value.
MEASURED PARAMETER: EC50 (µg/mL)

• 49 (antibody, V domains shown) VH: QVQLVESGAEVKKPGASVKVSCKASGYTFTRYYLHWVRQAPGQGLEWMGVINPYGGATNYAQKFQGRVTLTRDTSTSTVYMELNSLRSEDTAVYFCARDAMEGNSYFDHWGPGTLVTVSS = 0.12
• 114 (antibody, V domains shown) VH: QVQLVQSGAEMKKPGASVTVSCKASGYTFTNYYIQWVRQAPGQGLEWMGVINPYDGSTNYAQRFQGRVTLTRDTTTTTVNMELSGLRSEDTAVYYCARDYMIGYVVFDFWGQGTLVTVSS = 0.076
• 122 (antibody, V domains shown) VH: EVQLLESGAEVKKPGASVKVSCKASGYTFNRYYIHWVRQAPGQGLEWMGVINPYDGSTDYAQKFRDRITMTRDTSTNTVYMDLSSLRSEDTAVYFCARDAMEGDSYFDNWGRGTLVTVSS = 0.1
• 206 (antibody, V domains shown) VH: QVQLVQSGAEVKKPGASVRVSCKASGYPFINYYIQWVRQAPGQGLEWMGVINPFDGSTNYAQKFQGRVTVTRDTSTSTVFMDLNSLRSEDTAVYYCARDSMIGYVLFDFWGQGTLVTVSS = 0.066
